Experiment: Human HepG2 cell viability assay in 384 well format
Type: toxicity, cell-based
Design: dose 125 nL, time 70.5 hour; concentration not given beside the values
Conditions: HepG2 cells, read-out: Inhibition
# key: entry, value: cytotoxicity at 70.5 h
Reply numerically in %, unit not repeated.

Example entries and their recorded answers appear below.
# Compound, cytotoxicity at 70.5 h / %
records = [
    ("CN(C)C(=O)c1cccc(Nc2cnn(C)c2)c1", -3.59),
    ("CN(C)CC(=O)N1CCC2(CCc3cc(-c4cccnc4)ccc32)CC1", -0.278),
    ("CN(C)C(=O)CCNC(=O)Nc1cccc(Cl)c1-n1cccn1", 1.32),
    ("O=C(NC[C@]12COC[C@H]1CN(Cc1nccs1)C2)N1CCCC1", -13.4),
]

Turning now to a further record.
query: Return the recorded cytotoxicity at 70.5 h value; entry: CN(C)c1nc2n(c(=O)n1)CCN2C(=O)Nc1ccc(Cl)cc1
result: -6.29
